Measured IC50, listed per entry for reference.
tested target: Norepinephrine transporter (Rattus norvegicus)
Sequence (Q9WTR4 whole entry): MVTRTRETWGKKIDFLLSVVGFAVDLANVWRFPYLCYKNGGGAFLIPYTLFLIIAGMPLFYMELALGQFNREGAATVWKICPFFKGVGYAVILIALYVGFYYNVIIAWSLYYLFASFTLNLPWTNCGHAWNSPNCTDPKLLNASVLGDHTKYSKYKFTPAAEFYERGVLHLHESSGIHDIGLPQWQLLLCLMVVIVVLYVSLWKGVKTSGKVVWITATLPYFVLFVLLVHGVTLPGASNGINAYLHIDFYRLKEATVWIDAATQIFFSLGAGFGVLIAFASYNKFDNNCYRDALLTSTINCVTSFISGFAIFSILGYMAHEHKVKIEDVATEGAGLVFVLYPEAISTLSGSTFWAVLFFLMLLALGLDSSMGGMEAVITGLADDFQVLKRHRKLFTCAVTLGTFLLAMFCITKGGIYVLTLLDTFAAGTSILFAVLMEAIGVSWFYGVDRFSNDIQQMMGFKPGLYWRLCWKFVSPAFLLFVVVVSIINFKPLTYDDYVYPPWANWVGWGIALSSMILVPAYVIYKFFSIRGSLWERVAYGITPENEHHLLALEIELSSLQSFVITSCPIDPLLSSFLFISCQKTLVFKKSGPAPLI
assay procedure: Norepinephrine transporter activity was determined by the ability of compound to inhibit the neurotransmitter norepinephrine-NE reuptake system using [3H]norepinephrine as radioligand
readout name: IC50

> print(dat)
                         chemical.structure   result
1   I/C=C\CN1CCN(CCOC(c2ccccc2)c2ccccc2)CC1  2.19 µM
2  Fc1ccc(C(OCCNCCNCCCc2ccccc2)c2ccc(F)cc2)cc1  > 10 µM
3   I/C=C/CN1CCN(CCOC(c2ccccc2)c2ccccc2)CC1  > 10 µM
4  CN(CCCc1ccccc1)CCN(C)CCOC(c1ccc(F)cc1)c1ccc(F)cc1  > 10 µM
5   c1ccc(CCCNCCNCCOC(c2ccccc2)c2ccccc2)cc1  > 10 µM
6  c1ccc(CCCNCCCNCCOC(c2ccccc2)c2ccccc2)cc1  > 10 µM

====

assay procedure: Selectivity of compound towards DA transporter to that of NE transporter
readout name: Selectivity

> print(dat)
                         chemical.structure  readout.name  result
1   I/C=C/CN1CCN(CCOC(c2ccccc2)c2ccccc2)CC1   Selectivity    > 20
2  c1ccc(CCCNCCCNCCOC(c2ccccc2)c2ccccc2)cc1   Selectivity    > 65
3  Fc1ccc(C(OCCNCCNCCCc2ccccc2)c2ccc(F)cc2)cc1   Selectivity   > 200
4  CN(CCCc1ccccc1)CCN(C)CCOC(c1ccc(F)cc1)c1ccc(F)cc1   Selectivity  > 1000
5   c1ccc(CCCNCCNCCOC(c2ccccc2)c2ccccc2)cc1   Selectivity     > 8
6   I/C=C\CN1CCN(CCOC(c2ccccc2)c2ccccc2)CC1   Selectivity       3

====

tested target: Sodium-dependent serotonin transporter (Rattus norvegicus, UniProt P31652)
Sequence (P31652 whole entry): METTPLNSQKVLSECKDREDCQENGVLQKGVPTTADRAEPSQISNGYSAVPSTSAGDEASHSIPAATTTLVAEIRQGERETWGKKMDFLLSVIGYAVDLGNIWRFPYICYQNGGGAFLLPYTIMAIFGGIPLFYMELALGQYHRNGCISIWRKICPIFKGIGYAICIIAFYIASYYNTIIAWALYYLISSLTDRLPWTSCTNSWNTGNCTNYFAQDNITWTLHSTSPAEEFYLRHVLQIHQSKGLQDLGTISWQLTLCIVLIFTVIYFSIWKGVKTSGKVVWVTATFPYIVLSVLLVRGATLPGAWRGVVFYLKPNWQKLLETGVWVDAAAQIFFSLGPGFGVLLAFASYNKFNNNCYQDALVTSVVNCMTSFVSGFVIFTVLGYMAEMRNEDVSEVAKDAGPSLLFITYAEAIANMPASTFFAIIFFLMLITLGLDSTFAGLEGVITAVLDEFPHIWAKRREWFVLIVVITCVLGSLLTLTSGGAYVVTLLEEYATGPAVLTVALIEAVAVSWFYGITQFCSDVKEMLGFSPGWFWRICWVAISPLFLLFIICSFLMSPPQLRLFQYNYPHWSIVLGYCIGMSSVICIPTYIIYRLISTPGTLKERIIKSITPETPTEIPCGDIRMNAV
assay procedure: Compound was tested for its ability to inhibit the neurotransmitter serotonin-5-HT reuptake system using [3H]5-HT as radioligand
readout name: IC50

> print(dat)
                         chemical.structure  readout.name   result
1   I/C=C/CN1CCN(CCOC(c2ccccc2)c2ccccc2)CC1          IC50  > 10 µM
2   I/C=C\CN1CCN(CCOC(c2ccccc2)c2ccccc2)CC1          IC50  > 10 µM
3   c1ccc(CCCNCCNCCOC(c2ccccc2)c2ccccc2)cc1          IC50  > 10 µM
4  c1ccc(CCCNCCCNCCOC(c2ccccc2)c2ccccc2)cc1          IC50  > 10 µM
5  Fc1ccc(C(OCCNCCNCCCc2ccccc2)c2ccc(F)cc2)cc1          IC50   0.5 µM
6  CN(CCCc1ccccc1)CCN(C)CCOC(c1ccc(F)cc1)c1ccc(F)cc1          IC50   1.5 µM

====

tested target: Sodium-dependent dopamine transporter (Rattus norvegicus, UniProt P23977)
Sequence (P23977 whole entry): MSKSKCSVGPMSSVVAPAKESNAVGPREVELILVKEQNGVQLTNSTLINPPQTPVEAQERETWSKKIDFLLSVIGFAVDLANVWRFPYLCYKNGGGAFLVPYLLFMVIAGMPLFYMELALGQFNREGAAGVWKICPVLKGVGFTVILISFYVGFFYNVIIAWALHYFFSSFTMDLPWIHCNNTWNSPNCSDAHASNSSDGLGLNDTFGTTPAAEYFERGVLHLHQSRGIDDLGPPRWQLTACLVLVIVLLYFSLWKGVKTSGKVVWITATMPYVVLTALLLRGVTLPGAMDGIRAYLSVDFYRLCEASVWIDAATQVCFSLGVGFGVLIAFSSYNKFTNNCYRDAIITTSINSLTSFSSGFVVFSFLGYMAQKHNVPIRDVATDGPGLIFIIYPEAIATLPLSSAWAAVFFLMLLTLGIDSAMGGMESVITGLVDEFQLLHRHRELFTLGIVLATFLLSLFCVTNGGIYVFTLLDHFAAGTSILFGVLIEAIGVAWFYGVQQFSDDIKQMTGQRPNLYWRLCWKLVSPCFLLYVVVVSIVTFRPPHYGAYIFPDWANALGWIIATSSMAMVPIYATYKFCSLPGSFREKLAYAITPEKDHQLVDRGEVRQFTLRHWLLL
assay procedure: Compound was tested for its ability to inhibit the neurotransmitter dopamine-DA reuptake system using [3H]dopamine as radioligand
Counter-ions that a name gives are not always drawn.
Reported IC50 values for the following compounds.
readout name: IC50 (nM)

> print(dat)
                                   compound                             tested.target  readout.name  numeric.value
1  c1ccc(CCCNCCCNCCOC(c2ccccc2)c2ccccc2)cc1  Sodium-dependent dopamine transporter (Rattus norvegicus, UniProt P23977)          IC50            150
2   I/C=C\CN1CCN(CCOC(c2ccccc2)c2ccccc2)CC1  Sodium-dependent dopamine transporter (Rattus norvegicus, UniProt P23977)          IC50            780
3  CC(NC(C)(C)C)C(=O)c1cccc(Cl)c1 (configuration not stated) [BUPROPION HYDROCHLORIDE]  Sodium-dependent dopamine transporter (Rattus norvegicus, UniProt P23977)          IC50           1230
4  Fc1ccc(C(OCCNCCNCCCc2ccccc2)c2ccc(F)cc2)cc1  Sodium-dependent dopamine transporter (Rattus norvegicus, UniProt P23977)          IC50             49
5  CN(CCCc1ccccc1)CCN(C)CCOC(c1ccc(F)cc1)c1ccc(F)cc1  Sodium-dependent dopamine transporter (Rattus norvegicus, UniProt P23977)          IC50             10
6   I/C=C/CN1CCN(CCOC(c2ccccc2)c2ccccc2)CC1  Sodium-dependent dopamine transporter (Rattus norvegicus, UniProt P23977)          IC50            505
7   c1ccc(CCCNCCNCCOC(c2ccccc2)c2ccccc2)cc1  Sodium-dependent dopamine transporter (Rattus norvegicus, UniProt P23977)          IC50           1230
